Listing of entries alongside the reported hPPAR; Relative activity δ.
target: human PPARδ (Homo sapiens, UniProt Q03181); construct: with 137th to 441st amino acids of human PPARδ; expressed in transfected cells; host or cells: COS cells (African green monkey kidney); test: Gal4-human PPARδ chimera luciferase transfection assay in COS cells; format: cell-based; conditions: compound added at 1 μM, luciferase activity with GW501516 1 μM given as 10.0, 16 hours
Sequence (Q03181 137-441): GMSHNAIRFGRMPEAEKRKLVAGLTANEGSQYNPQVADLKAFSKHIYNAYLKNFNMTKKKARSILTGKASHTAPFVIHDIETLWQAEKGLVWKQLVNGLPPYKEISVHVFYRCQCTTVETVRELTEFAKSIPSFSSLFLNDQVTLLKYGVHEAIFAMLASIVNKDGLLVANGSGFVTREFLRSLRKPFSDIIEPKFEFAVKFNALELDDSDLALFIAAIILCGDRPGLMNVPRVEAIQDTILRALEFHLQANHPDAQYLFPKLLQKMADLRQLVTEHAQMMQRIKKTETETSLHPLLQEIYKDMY
Output spec: single numeric token, no unit.

These solved cases illustrate the format of a correct answer.
O=C(O)c1ccccc1OCCCCN(CCOc1ccccc1)c1nc2ccccc2o1
0.1
CCCCCCCCN(CCCCCS(=O)(=O)c1ccccc1C(=O)O)c1nc2ccccc2o1
0.2
CCCCCCCN(CCCOc1cccc(C(=O)O)c1)c1nc2ccccc2o1
0.5
Cc1c(CN(CCSc2ccccc2C(=O)O)c2nc3ccccc3o2)cccc1[N+](=O)[O-]
0.2
CCCCCCCCN(CCCCCSc1ccccc1C(=O)O)c1nc2ccccc2o1
0.9

Consider the record given below.
Field request: hPPAR; Relative activity δ | item: CCCCCCCCN(CCOc1ccccc1C(=O)O)c1nc2ccccc2o1
0.1
